target.entity: T1, human TMEM106B (human, UniProt Q9NUM4 2-274)
T1 construct: full-length, transiently expressed on HEK293 cells, or natively expressed on HeLa, U251 and A549 cells (the cell is named under assay); also the source of the Pepscan peptides; also called huTMEM106B; huTMEM
protocol.details: FACS HeLa
reported.property: MFI (MFI)
One number for each entry, in MFI.

Consider the binder shown here: TM-21 (antibody, V domains shown) VH: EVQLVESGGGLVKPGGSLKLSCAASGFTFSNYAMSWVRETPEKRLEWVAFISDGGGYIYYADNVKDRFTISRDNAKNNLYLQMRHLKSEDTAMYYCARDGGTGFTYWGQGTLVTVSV VL: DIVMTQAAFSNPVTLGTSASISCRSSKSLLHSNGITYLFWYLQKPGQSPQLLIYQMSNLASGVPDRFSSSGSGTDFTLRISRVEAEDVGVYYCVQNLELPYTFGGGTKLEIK What is its recorded MFI?
1200

Same lookup for TM-2 (antibody, V domains shown) VH: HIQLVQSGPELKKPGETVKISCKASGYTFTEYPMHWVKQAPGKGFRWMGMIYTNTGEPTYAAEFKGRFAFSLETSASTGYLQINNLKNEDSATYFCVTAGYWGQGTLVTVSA VL: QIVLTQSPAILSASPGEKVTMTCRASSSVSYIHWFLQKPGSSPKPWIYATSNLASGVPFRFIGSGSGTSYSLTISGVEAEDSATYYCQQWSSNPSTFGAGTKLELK , please.
2530

Next:
# lookup: MFI of TM-18 (antibody, V domains shown) VH: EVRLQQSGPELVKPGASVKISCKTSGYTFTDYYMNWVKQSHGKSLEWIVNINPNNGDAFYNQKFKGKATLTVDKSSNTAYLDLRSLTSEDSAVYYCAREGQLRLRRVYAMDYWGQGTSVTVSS VL: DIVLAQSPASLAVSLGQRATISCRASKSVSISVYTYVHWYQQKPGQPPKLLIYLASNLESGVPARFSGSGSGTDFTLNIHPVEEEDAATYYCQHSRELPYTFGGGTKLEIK
1920

Hello, the source for this data is patent US20200339680A1, in case you need it.
